Tested on: 786-O
Assay: Euclidean distance of Cell Painting phenotypic profile (signed KS, 77 features) to DMSO centroid (dimensionless distance); 5 or 10 uM (library dependent); higher = stronger phenotypic change vs DMSO (phenoactivity)
Conditions: 48 h
Counter-ions that a name gives are not always drawn.
Is Euclidean distance at least 2? Then yes. If not, no.

compound: CN(C)CCC(c1ccccc1)c1ccccn1 (stereo not drawn) [Pheniramine Maleate]
target system: 786-O
label value: no
--
compound: COc1ccc(NS(=O)(=O)c2sc3ccc(Cl)cc3c2C)cc1N1CCNCC1
target system: 786-O
label value: yes
--
compound: CCOC(=O)c1c(N)sc2c1CCN(Cc1ccccc1)C2 [Tinoridine hydrochloride]
target system: 786-O
label value: no
--
compound: CC(C)c1ccc(NC(=O)Cn2cnc3c2c(=O)n(C)c(=O)n3C)cc1
target system: 786-O
label value: no
--
compound: O=C(OC[C@H]1O[C@@H](OC(=O)c2cc(O)c(O)c(OC(=O)c3cc(O)c(O)c(O)c3)c2)[C@H](OC(=O)c2cc(O)c(O)c(OC(=O)c3cc(O)c(O)c(O)c3)c2)[C@@H](OC(=O)c2cc(O)c(O)c(OC(=O)c3cc(O)c(O)c(O)c3)c2)[C@@H]1OC(=O)c1cc(O)c(O)c(OC(=O)c2cc(O)c(O)c(O)c2)c1)c1cc(O)c(O)c(OC(=O)c2cc(O)c(O)c(O)c2)c1 [Tannic acid]
target system: 786-O
label value: no
--
compound: CN(C)CCC=C1c2ccccc2C=Cc2ccccc21 [Cyclobenzaprine HCl]
target system: 786-O
label value: no
--
compound: CNCc1ccc(C)c(NC(=O)c2ccc(Nc3nc(-c4ccccc4)c4ccccc4n3)cc2)c1
target system: 786-O
label value: yes
--
compound: C#Cc1cccc(Nc2ncnc3cc(OC)c(OCCCCCCC(=O)NO)cc23)c1
target system: 786-O
label value: yes

====

Test system: A549
Assay: Euclidean distance of Cell Painting phenotypic profile (signed KS, 77 features) to DMSO centroid (dimensionless distance); 5 or 10 uM (library dependent); higher = stronger phenotypic change vs DMSO (phenoactivity)
Settings: 48 h
Structures can show the parent of a compound that is named as a salt.
property: Euclidean distance

compound: CCCCOc1c(C(=O)c2c(F)cc(C)cc2F)c[nH]c2nncc1-2
property: Euclidean distance
measured number: 2.16
//
compound: O=c1cc(N2CCOCC2)oc2c1ccc1ccccc12
property: Euclidean distance
measured number: 1.57
//
compound: Nc1cc(C(Cl)=C(Cl)Cl)c(S(N)(=O)=O)cc1S(N)(=O)=O [Clorsulon]
property: Euclidean distance
measured number: 0.636
//
compound: COc1cc(Br)c(Nc2nc(-c3c(C)nc4ncccn34)cs2)c(Br)c1
property: Euclidean distance
measured number: 2.67
//
compound: O=C(Nc1ccc(S(=O)(=O)Nc2ccccc2Cl)c(Cl)c1)c1ccccn1
property: Euclidean distance
measured number: 0.81
//
compound: Nc1cc(C(F)(F)F)c(-c2cc(N3CCOCC3)nc(N3CCOCC3)n2)cn1 [Buparlisib (BKM120. NVP-BKM120)]
property: Euclidean distance
measured number: 3.38
//
compound: O=C(O)CCC(=O)OC[C@@H](NC(=O)C(Cl)Cl)[C@H](O)c1ccc([N+](=O)[O-])cc1 [Chloramphenicol sodium succinate]
property: Euclidean distance
measured number: 1.28
//
compound: O=C(O)c1cc(-c2ccccc2)nc2ccccc12 [Cinchophen]
property: Euclidean distance
measured number: 1.12
//
compound: CC1=CC(=O)c2ccccc2C1=O [Menadione]
property: Euclidean distance
measured number: 0.782
//
compound: CC(=O)OCC(=O)[C@@]1(O)CC[C@H]2[C@@H]3CCC4=CC(=O)CC[C@]4(C)[C@H]3C(=O)C[C@@]21C [Cortisone acetate]
property: Euclidean distance
measured number: 0.746
//
compound: C[C@](N)(Cc1ccc(O)c(O)c1)C(=O)O [Methyldopa]
property: Euclidean distance
measured number: 0.734
//
compound: CC(C)CCNc1ncccc1C(=O)N1CCN(Cc2ccccc2)CC1
property: Euclidean distance
measured number: 0.542
//
compound: CN1CCN(c2cc3c(cc2F)c(=O)c(C(=O)O)cn3-c2ccc(F)cc2)CC1 [Difloxacin hydrochloride]
property: Euclidean distance
measured number: 0.685
//
compound: Cc1cnc(CNC(=O)c2c(=O)c3ccc(N4CCCN(C)CC4)nc3n3c2sc2ccccc23)cn1
property: Euclidean distance
measured number: 3.26
//
compound: Oc1cc(O)c2c(c1)OC(c1ccc(O)c(O)c1)C(O)C2 (single isomer, unassigned; (+)) [(+)-Catechin]
property: Euclidean distance
measured number: 0.904
//
compound: C[C@H]1CNC(=O)c2cnn3ccc(nc23)N[C@H](C)c2cc(F)ccc2O1
property: Euclidean distance
measured number: 4.83
//
compound: N[C@@H](CC(=O)O)C(=O)O [L-aspartic Acid]
property: Euclidean distance
measured number: 1.3
//
compound: Oc1c(Cl)cc(Cl)c2cccnc12 [Chloroxine]
property: Euclidean distance
measured number: 2.64
//
compound: CNC[C@H](O)c1cccc(O)c1 [Phenylephrine HCl]
property: Euclidean distance
measured number: 0.809
//
compound: Nc1nc2c(ncn2COCCO)c(=O)[nH]1 [Aciclovir]
property: Euclidean distance
measured number: 1.17
//
compound: O=C(O)C(Cc1c[nH]c2ccccc12)N1C(=O)c2ccccc2C1=O (configuration not stated)
property: Euclidean distance
measured number: 0.979
//
compound: CCn1cc(C(=O)O)c(=O)c2cnc(N3CCCC3)nc21 [Piromidic Acid]
property: Euclidean distance
measured number: 0.767
//
compound: C#Cc1cccc(Nc2ncnc3cc(OCCOC)c(OCCO)cc23)c1
property: Euclidean distance
measured number: 1.49
//
compound: CN1CCCC(n2nc(Cc3ccc(Cl)cc3)c3ccccc3c2=O)CC1 (configuration not stated) [Azelastine HCl]
property: Euclidean distance
measured number: 0.991
//
compound: CCCCCCCN(CC)CCCC(O)c1ccc(NS(C)(=O)=O)cc1 (configuration not stated) [Ibutilide Fumarate]
property: Euclidean distance
measured number: 0.555
//
compound: O=S(=O)(O)CCS [Mesna]
property: Euclidean distance
measured number: 0.755
//
compound: CCN1CCC[C@H]1CNC(=O)c1cc(S(N)(=O)=O)ccc1OC [Levosulpiride]
property: Euclidean distance
measured number: 0.793
//
compound: CC(C)c1cc(-c2n[nH]c(=O)n2-c2ccc3c(ccn3C)c2)c(O)cc1O [Ganetespib (STA-9090)]
property: Euclidean distance
measured number: 2.86
//
compound: C[C@H]1c2cccc(O)c2C(=O)C2=C(O)[C@]3(O)C(=O)C(C(N)=O)=C(O)[C@@H](N(C)C)[C@@H]3[C@@H](O)[C@@H]21 [Doxycycline]
property: Euclidean distance
measured number: 1.3
//
compound: COc1ccccc1N1CCN(CCCNc2cc(=O)n(C)c(=O)n2C)CC1 [Urapidil HCl]
property: Euclidean distance
measured number: 0.9
//
compound: CCCCC(CC)CN1CN(CC(CC)CCCC)CC(C)(N)C1 (configuration not stated) [Hexetidine]
property: Euclidean distance
measured number: 4.33
//
compound: CN(C)CCCCC(=O)Nc1ccc(NC(=S)NC(=O)c2ccc(C(C)(C)C)cc2)cc1 [Tenovin-6]
property: Euclidean distance
measured number: 3.08
//
compound: Cc1cccc(Oc2cnc(=O)[nH]c2)c1
property: Euclidean distance
measured number: 1.3
//
compound: O=C1C(=O)N(Cc2ccc(Cl)c(Cl)c2)c2ccccc21 [Apoptosis Activator 2]
property: Euclidean distance
measured number: 1.36
//
compound: CC1(C)S[C@@H]2[C@H](NC(=O)Cc3ccccc3)C(=O)N2[C@H]1C(=O)O [Benzylpenicillin potassium]
property: Euclidean distance
measured number: 0.89
//
compound: Cc1nc(C#Cc2ccnc(Cl)c2)c(C)n1-c1ccc(OC(F)(F)F)cc1
property: Euclidean distance
measured number: 0.736
//
compound: C[C@H](CSC(=O)c1ccccc1)C(=O)N1C[C@@H](Sc2ccccc2)C[C@H]1C(=O)O [Zofenopril calcium]
property: Euclidean distance
measured number: 0.393
